System: homoserine transsuccinylase
measurement protocol: Homoserine transsuccinylase enzyme test using cell extracts, decrease in extinction at 232 nm, with and without L-methionine
Format: biochemical, E. coli
particulars: cell extract of E. coli W3110 transformants; 1 mM homoserine, 0.1 mM succinyl-CoA, 50 mM Tris/Cl pH 7.6
assay endpoint: Activity (U/mg)
The response must be a number in U/mg with no trailing unit.

Briefly, Activity (U/mg) measured for pSLmetAC: MetA variant with Cys instead of Asp at position 101 (protein, UniProt P07623 2-309, looked up, variant D101C) Homoserine …: PIRVPDELPAVNFLREENVFVMTTSRASGQEIRPLKVLILNLMPKKIETENQFLRLLSNSPLQVDIQLLRIDSRESRNTPAEHLNNFYCNFEDIQDQNFCGLIVTGAPLGLVEFNDVAYWPQIKQVLEWSKDHVTSTLFVCWAVQAALNILYGIPKQTRTEKLSGVYEHHILHPHALLTRGFDDSFLAPHSRYADFPAALIRDYTDLEILAETEEGDAYLFASKDKRIAFVTGHPEYDAQTLAQEFFRDVEAGLDPDVPYNYFPHNDPQNTPRASWRSHGNLLFTNWLNYYVYQITPYDLRHMNPTLD : 0.084

Briefly, Activity (U/mg) measured for pSLmetA*P: MetA variant with Pro instead of Tyr at position 294 (protein, UniProt P07623 2-309, looked up, variant Y294P) Homoserine …: PIRVPDELPAVNFLREENVFVMTTSRASGQEIRPLKVLILNLMPKKIETENQFLRLLSNSPLQVDIQLLRIDSRESRNTPAEHLNNFYCNFEDIQDQNFDGLIVTGAPLGLVEFNDVAYWPQIKQVLEWSKDHVTSTLFVCWAVQAALNILYGIPKQTRTEKLSGVYEHHILHPHALLTRGFDDSFLAPHSRYADFPAALIRDYTDLEILAETEEGDAYLFASKDKRIAFVTGHPEYDAQTLAQEFFRDVEAGLDPDVPYNYFPHNDPQNTPRASWRSHGNLLFTNWLNYYVPQITPYDLRHMNPTLD : 0.020

Briefly, Activity (U/mg) measured for pKP446: MetA variant with Cys instead of Tyr at position 294 (protein, UniProt P07623 2-309, looked up, variant Y294C) Homoserine …: PIRVPDELPAVNFLREENVFVMTTSRASGQEIRPLKVLILNLMPKKIETENQFLRLLSNSPLQVDIQLLRIDSRESRNTPAEHLNNFYCNFEDIQDQNFDGLIVTGAPLGLVEFNDVAYWPQIKQVLEWSKDHVTSTLFVCWAVQAALNILYGIPKQTRTEKLSGVYEHHILHPHALLTRGFDDSFLAPHSRYADFPAALIRDYTDLEILAETEEGDAYLFASKDKRIAFVTGHPEYDAQTLAQEFFRDVEAGLDPDVPYNYFPHNDPQNTPRASWRSHGNLLFTNWLNYYVCQITPYDLRHMNPTLD : 0.133

Briefly, Activity (U/mg) measured for pSLmetAH: MetA variant with His instead of Asp at position 101 (protein, UniProt P07623 2-309, looked up, variant D101H) Homoserine …: PIRVPDELPAVNFLREENVFVMTTSRASGQEIRPLKVLILNLMPKKIETENQFLRLLSNSPLQVDIQLLRIDSRESRNTPAEHLNNFYCNFEDIQDQNFHGLIVTGAPLGLVEFNDVAYWPQIKQVLEWSKDHVTSTLFVCWAVQAALNILYGIPKQTRTEKLSGVYEHHILHPHALLTRGFDDSFLAPHSRYADFPAALIRDYTDLEILAETEEGDAYLFASKDKRIAFVTGHPEYDAQTLAQEFFRDVEAGLDPDVPYNYFPHNDPQNTPRASWRSHGNLLFTNWLNYYVYQITPYDLRHMNPTLD : 0.045

Briefly, Activity (U/mg) measured for pSLmetAN: MetA variant with Asn instead of Asp at position 101 (protein, UniProt P07623 2-309, looked up, variant D101N) Homoserine …: PIRVPDELPAVNFLREENVFVMTTSRASGQEIRPLKVLILNLMPKKIETENQFLRLLSNSPLQVDIQLLRIDSRESRNTPAEHLNNFYCNFEDIQDQNFNGLIVTGAPLGLVEFNDVAYWPQIKQVLEWSKDHVTSTLFVCWAVQAALNILYGIPKQTRTEKLSGVYEHHILHPHALLTRGFDDSFLAPHSRYADFPAALIRDYTDLEILAETEEGDAYLFASKDKRIAFVTGHPEYDAQTLAQEFFRDVEAGLDPDVPYNYFPHNDPQNTPRASWRSHGNLLFTNWLNYYVYQITPYDLRHMNPTLD : 0.050
